target: Dopamine, D2s (Human Recombinant) (Homo sapiens); construct: expressed in transfected cells; host or cells: A9L cells (membranes); test: dopamine D2 receptor binding assay, [3H]spiperone, human recombinant (A9L cells); details: 1 h, concentration 1.0E-5, average, N = 2, read-out: % Specific Binding
Sequence (P14416 1-414 isoform P14416-2): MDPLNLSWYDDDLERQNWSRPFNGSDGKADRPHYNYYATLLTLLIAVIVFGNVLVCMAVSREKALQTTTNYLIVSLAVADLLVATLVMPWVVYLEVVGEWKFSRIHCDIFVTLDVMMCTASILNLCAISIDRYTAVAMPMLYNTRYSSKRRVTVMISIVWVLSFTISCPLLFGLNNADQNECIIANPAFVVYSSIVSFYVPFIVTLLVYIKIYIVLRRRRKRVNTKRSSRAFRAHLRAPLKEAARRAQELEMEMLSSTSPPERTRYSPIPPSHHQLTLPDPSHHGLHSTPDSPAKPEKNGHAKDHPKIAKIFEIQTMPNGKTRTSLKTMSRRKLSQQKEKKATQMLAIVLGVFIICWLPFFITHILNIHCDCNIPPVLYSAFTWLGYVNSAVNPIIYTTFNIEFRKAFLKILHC
MEASURED_ATTRIBUTE: activity at 10 µM (%)

A: Clc1ccc(CN2CCC(c3nc(-c4cccs4)no3)CC2)cc1
B: Cc1ccc(-c2noc(C3CCN(Cc4ccc(Cl)c(Cl)c4)CC3)n2)cc1
Lookup: Please indicate which entry, A or B , has the lower recorded activity at 10 µM value. Mark your selection by writing its label.
Found: A
